Hello, the source for this data is patent US9732078B2, in case you need it.

Record form. Attribute: inhibition at 1 µM. Fill in for each entry.
# Test system: TCC97-7 bladder cancer cells carrying the Ser249Cys mutation of FGF receptor 3
# test_name: Reduction of intracellular ATP content of TCC97-7 cells (Cell Titer-Glo, 3 days, serum-supplemented medium)
# Assay type: cell-based
# condition_set: 72 h, 1 μM, TCC97-7 cells in presence of serum, read-out: Inhibition of the amount of intracellular ATP (%)
Answer format: numeric, % implied, no suffix.

Asked: Can you look up the measured inhibition at 1 µM of "CCCn1c(C)nc2ccc(C(=O)c3nc(-c4cccc(C(N)=O)c4)c4ccccn34)cc2c1=O" for me?
Given back: 17

Asked: Consider next the compound "CCCn1c(=O)[nH]c2ccc(C(=O)c3nc(-c4cccc(C(N)=O)c4)c4ccccn34)cc2c1=O" in the same way.
Given back: 8

Asked: Please answer likewise for CN(C)CCNC(=O)c1cccc(-c2nc(C(=O)c3ccc4c(c3)c(=O)n(Cc3ccc(F)cc3)c(=O)n4C)n3ccccc23)c1.Cl [compound 116, hydrochloride]
Given back: 9

Asked: Now the compound "Cn1c(=O)n(Cc2ccc(F)cc2)c(=O)c2cc(C(=O)c3nc(-c4cccnc4)c4ccccn34)ccc21"
Given back: 51

====

# System: TCC97-7 bladder cancer tumour cells carrying the Ser249Cys mutation of FGF receptor 3
# test_name: Cytotoxic effect: percentage of permeabilized (very fluorescent, Hoechst 33342) TCC97-7 cells
# Type: cell-based
# condition_set: 0.1 μM, 3 days
For each record, write down the corresponding Cytotoxicity (% of permeable cells).
// return the numeric value with its unit appended

Asked: Could you tell me which Cytotoxicity (% of permeable cells) is on file for "CCCn1c(=O)n(CCOc2ccc(F)cc2)c(=O)c2cc(C(=O)c3nc(-c4cccc(C(=O)[O-])c4)c4ccccn34)ccc21.[Na+]" ?
Given back: 5%

Asked: Please do the same for "COCn1c(=O)n(Cc2ccc(F)cc2)c(=O)c2cc(C(=O)c3nc(-c4cccc(C(=O)[O-])c4)c4ccccn34)ccc21.[Na+]" as well.
Given back: 4%

Asked: # repeat for "Cn1c(=O)n(Cc2ccc(F)cc2)c(=O)c2cc(C(=O)c3nc(-c4cccc(C(=O)[O-])c4)c4ccccn34)ccc21.[Na+]"
Given back: 5%

Asked: // next record "CCCn1c(=O)n(Cc2ccc(C)s2)c(=O)c2cc(C(=O)c3nc(-c4cccc(C(=O)[O-])c4)c4ccccn34)ccc21.[Na+]"
Given back: 3%

Asked: What about "Cn1c(=O)n(Cc2ccc(F)cc2)c(=O)c2cc(C(=O)c3ncc4ccccn34)ccc21" ?
Given back: 6%

Asked: Follow-up entry: "Cn1c(=O)n(CCc2ccc(F)cc2)c(=O)c2cc(C(=O)c3nc(-c4cccc(C(=O)[O-])c4)c4ccccn34)ccc21.[Na+]"
Given back: 4%

Asked: Can you handle "CCCn1c(=O)n(Cc2ccc(F)cc2)c(=O)c2cc(C(=O)c3nc(-c4cnc(N(C)C)nc4)c4ccccn34)ccc21" next?
Given back: 3%

Asked: Further, for "CCCn1c(=O)n(CCCC(C)C)c(=O)c2cc(C(=O)c3nc(-c4cccc(C(=O)[O-])c4)c4ccccn34)ccc21.[Na+]" ?
Given back: 4%

Asked: Then this compound: "Cc1ccc(Cn2c(=O)c3cc(C(=O)c4nc(-c5cccnc5)c5ccccn45)ccc3n(C)c2=O)s1"
Given back: 5%

Asked: How about "Cc1ccc(Cn2c(=O)c3cc(C(=O)c4nc(-c5cccc(C(=O)[O-])c5)c5ccccn45)ccc3n(C)c2=O)s1.[Na+]" ?
Given back: 2%

====

# Test system: TCC97-7 bladder cancer tumour cells carrying the Ser249Cys mutation of FGF receptor 3
# test_name: Cytotoxic effect: percentage of permeabilized (very fluorescent, Hoechst 33342) TCC97-7 cells
# Type: cell-based
# condition_set: 0.1 μM, 3 days
Consider the following compounds; for each one, report its Cytotoxicity (% of permeable cells).
Give the value in % but do not write % after it.

Asked: Short answer please: Cytotoxicity (% of permeable cells), TCC97-7 bladder cancer tumour cells carrying the Ser249Cys mutation of FGF receptor 3, entry "Cc1nnc(-c2cccc(-c3nc(C(=O)c4ccc5c(c4)c(=O)n(Cc4ccc(F)cc4)c(=O)n5C)n4ccccc34)c2)o1"
Given back: 1

Asked: Same lookup for "CCOC(=O)c1cccc(-c2nc(C(=O)c3ccc4c(c3)c(=O)n(Cc3ccc(F)cc3)c(=O)n4C)n3ccccc23)c1" , please.
Given back: 1

Asked: Here is the next compound: "Cn1c(=O)n(Cc2cccc(F)c2)c(=O)c2cc(C(=O)c3nc(-c4cccc(C(N)=O)c4)c4ccccn34)ccc21"
Given back: 5

====

Would you kindly list cytotoxicity at 3 days, 10 µM for each of these compounds?
# test_name: Cytotoxic effect: percentage of permeabilized (very fluorescent, Hoechst 33342) TCC97-7 cells
# Format: cell-based
# condition_set: human, 10 μM, read-out: Cytotoxicity (% of permeable cells)
Numbers only here, please. The scale is %.

Asked: Give the measured cytotoxicity at 3 days, 10 µM of CCCn1c(=O)[nH]c2ccc(C(=O)c3nc(-c4cccc(C(N)=O)c4)c4ccccn34)cc2c1=O [compound 29] .
Given back: 17

Asked: Then what about the compound Cn1c(=O)n(Cc2ccc(F)cc2)c(=O)c2cc(C(=O)c3nc(-c4cccnc4)c4ccccn34)ccc21 [compound 112] ?
Given back: 11

Asked: Note, next up: CCCn1c(C)nc2ccc(C(=O)c3nc(-c4cccc(C(N)=O)c4)c4ccccn34)cc2c1=O [compound 55]
Given back: 6

Asked: Consider next the compound CN(C)CCNC(=O)c1cccc(-c2nc(C(=O)c3ccc4c(c3)c(=O)n(Cc3ccc(F)cc3)c(=O)n4C)n3ccccc23)c1.Cl [compound 116, hydrochloride] in the same way.
Given back: 3

====

Counter-ions that a name gives are not always drawn.
Give melting point for every item shown.
Response body: numeric value in °C, unit text excluded.

Asked: Record request: melting point value, item "O=C(c1ccc2nc[nH]c(=O)c2c1)c1ncc2ccccn12"
Given back: 289

Asked: Could you do the same for Cn1c(=O)n(Cc2ccc(F)cc2)c(=O)c2cc(C(=O)c3nc(-c4cccnc4)c4ccccn34)ccc21 (as salt: hydrochloride) , please?
Given back: 267

Asked: Another molecule to check: "Cl.Cn1c(=O)n(Cc2ccc(F)cc2)c(=O)c2cc(C(=O)c3nc(-c4cccc(C(=O)OCCN5CCOCC5)c4)c4ccccn34)ccc21"
Given back: 215

Asked: Similarly, "CCCn1c(=O)[nH]c2ccc(C(=O)c3nc(NS(C)(=O)=O)c4ccccn34)cc2c1=O" ?
Given back: 334

Asked: Further, for "CN(C)CCNC(=O)c1cccc(-c2nc(C(=O)c3ccc4c(c3)c(=O)n(Cc3ccc(F)cc3)c(=O)n4C)n3ccccc23)c1.Cl" ?
Given back: 247

Asked: Same read-out for "CCCn1c(=O)[nH]c2ccc(C(=O)c3ncc4ccc(C(=O)O)cn34)cc2c1=O" ?
Given back: 384

====

# Test system: TCC97-7 bladder cancer tumour cells carrying the Ser249Cys mutation of FGF receptor 3
# test_name: Cytotoxic effect: percentage of permeabilized (very fluorescent, Hoechst 33342) TCC97-7 cells
# Type: cell-based
# condition_set: 10 μM, 3 days
// assign Condition met if Cytotoxicity (% of permeable cells) falls strictly below 10%, else Condition not met (ties count as Condition not met)

Asked: Item CCCn1c(=O)n(Cc2ccc(F)cc2)c(=O)c2cc(C(=O)c3nc(-c4cnc(N(C)C)nc4)c4ccccn34)ccc21 [compound 232] : Cytotoxicity (% of permeable cells) beneath 10%, strictly?
Given back: Condition not met

Asked: Repeat with Cc1ccc(Cn2c(=O)c3cc(C(=O)c4nc(-c5cccc(C(=O)[O-])c5)c5ccccn45)ccc3n(C)c2=O)s1.[Na+] [compound 291]
Given back: Condition met

Asked: Same thing, different molecule: CCCn1c(=O)n(Cc2ccc(C)s2)c(=O)c2cc(C(=O)c3nc(-c4cccc(C(=O)[O-])c4)c4ccccn34)ccc21.[Na+] [compound 224]
Given back: Condition met

Asked: Can you handle COCn1c(=O)n(Cc2ccc(F)cc2)c(=O)c2cc(C(=O)c3nc(-c4cccc(C(=O)[O-])c4)c4ccccn34)ccc21.[Na+] [compound 71] next?
Given back: Condition met

Asked: Follow-up entry: Cn1c(=O)n(Cc2ccc(F)cc2)c(=O)c2cc(C(=O)c3ncc4ccccn34)ccc21 [compound 226]
Given back: Condition not met

Asked: Consider next the molecule CCCn1c(=O)n(CCOc2ccc(F)cc2)c(=O)c2cc(C(=O)c3nc(-c4cccc(C(=O)[O-])c4)c4ccccn34)ccc21.[Na+] [compound 221] in the same way.
Given back: Condition met

Asked: Continue with Cn1c(=O)n(Cc2cccc(F)c2)c(=O)c2cc(C(=O)c3nc(-c4cccc(C(N)=O)c4)c4ccccn34)ccc21 [compound 108]
Given back: Condition met

Asked: Moving on to the next molecule: Cc1ccc(Cn2c(=O)c3cc(C(=O)c4nc(-c5cccnc5)c5ccccn45)ccc3n(C)c2=O)s1 [compound 220]
Given back: Condition not met

Asked: Next molecule up: Cc1nnc(-c2cccc(-c3nc(C(=O)c4ccc5c(c4)c(=O)n(Cc4ccc(F)cc4)c(=O)n5C)n4ccccc34)c2)o1 [compound 140]
Given back: Condition met

Asked: Try the molecule Cn1c(=O)n(Cc2ccc(F)cc2)c(=O)c2cc(C(=O)c3nc(-c4cccc(C(=O)[O-])c4)c4ccccn34)ccc21.[Na+] [compound 49]
Given back: Condition not met

Asked: Entry to check: Cn1c(=O)n(CCc2ccc(F)cc2)c(=O)c2cc(C(=O)c3nc(-c4cccc(C(=O)[O-])c4)c4ccccn34)ccc21.[Na+] [compound 148]
Given back: Condition not met

Asked: Try this molecule too: CCCn1c(=O)n(CCCC(C)C)c(=O)c2cc(C(=O)c3nc(-c4cccc(C(=O)[O-])c4)c4ccccn34)ccc21.[Na+] [compound 207]
Given back: Condition not met
